molecular target: UniProt:P25101
Sequence (P25101 21-427): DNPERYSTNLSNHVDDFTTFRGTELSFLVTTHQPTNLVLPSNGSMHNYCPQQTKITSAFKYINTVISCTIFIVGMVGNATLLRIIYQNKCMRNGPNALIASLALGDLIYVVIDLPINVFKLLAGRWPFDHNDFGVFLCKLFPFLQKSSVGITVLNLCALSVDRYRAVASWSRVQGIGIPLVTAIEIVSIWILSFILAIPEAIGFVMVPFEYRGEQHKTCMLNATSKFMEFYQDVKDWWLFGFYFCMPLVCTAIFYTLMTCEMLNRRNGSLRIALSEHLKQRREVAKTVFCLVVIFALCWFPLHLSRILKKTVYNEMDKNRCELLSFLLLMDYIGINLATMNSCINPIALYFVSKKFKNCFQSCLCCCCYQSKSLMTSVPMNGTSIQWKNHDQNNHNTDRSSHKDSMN
pKi: −log10 of the molar value.
measurementLabel: pKi

Looking up "COc1cccc(OC)c1NC(=O)c1ccc(Cc2cc3c(cc2C)C(C)(C)CCC3(C)C)o1" , I see its pKi listed as < 6.00

* * *

I'd be grateful if you could share measured IC50 for these entries.
Target: mouse GnRH receptor (Mus musculus)
Construct: expressed in transfected cells; host or cells: 293 cells
Sequence (Q01776 1-327): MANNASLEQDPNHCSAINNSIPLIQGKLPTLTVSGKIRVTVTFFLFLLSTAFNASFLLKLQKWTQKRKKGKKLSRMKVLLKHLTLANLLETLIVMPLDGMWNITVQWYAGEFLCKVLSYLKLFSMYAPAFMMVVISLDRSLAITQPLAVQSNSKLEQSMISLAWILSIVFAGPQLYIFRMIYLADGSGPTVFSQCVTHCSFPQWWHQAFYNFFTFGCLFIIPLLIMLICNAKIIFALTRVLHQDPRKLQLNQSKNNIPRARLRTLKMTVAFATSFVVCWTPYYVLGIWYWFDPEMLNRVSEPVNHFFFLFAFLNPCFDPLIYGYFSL
Assay: Radioligand binding, 125I-GnRH-A, 293 cells expressing mouse GnRH receptors
Conditions: read-out: mGnRH IC50
Give bare numbers, in nM.

compound="Cc1cc2c(cc1Cc1ccc(C(=O)NCC3CCCC(CNc4nccc(NCC5CCCO5)n4)C3)o1)C(C)(C)CCC2(C)C (stereo not drawn)" subjectoftest="mouse GnRH receptor (Mus musculus)" numericresult=50

Would you mind giving IC50 for every compound in the list below?
1. Cc1cc2c(cc1Cc1ccc(C(=O)NCc3cccs3)o1)C(C)(C)CCC2(C)C
2. Cc1cc2c(cc1Cc1ccc(C(=O)NCC3CCCC(CNC(=N)N)C3)o1)C(C)(C)CCC2(C)C (stereo not drawn)
3. COC(=O)c1ccc(OC)c(NC(=O)c2ccc(Cc3cc4c(cc3C)C(C)(C)CCC4(C)C)o2)c1

**Result**
[610, 1100, 85]

Would you mind giving IC50 for every compound in the list below?
1. Cc1cc2c(cc1Cc1ccc(C(=O)NCC3CCC(C#N)CC3)o1)C(C)(C)CCC2(C)C (stereo not drawn)
2. COc1ccc(NC(=O)c2ccc(Cc3cc4c(cc3C)C(C)(C)CCC4(C)C)o2)c(OC)c1
3. COc1cc(C)c(Cl)c(C)c1Cc1ccc(C(=O)Nc2c(OC)cccc2OC)o1
4. Cc1cc2c(cc1Cc1ccc(C(=O)NCc3ccccc3Cl)o1)C(C)(C)CCC2(C)C
5. Cc1ccc(C(C)(C)C)cc1Cc1ccc(C(=O)NCc2cccc(CNc3ccnc(NC[C@H]4CCCO4)n3)c2)o1
6. COc1cc2c(cc1Cc1ccc(C(=O)NCc3cccc(CNc4ccnc(NC[C@H]5CCCO5)n4)c3)o1)C(C)(C)CCC2(C)C (stereo in doubt)

**Result**
1290
105
68
400
62
15

Would you mind giving IC50 for every compound in the list below?
1. Cc1cc2c(cc1Cc1ccc(C(=O)NCc3cccc(CNc4nccc(NCC5CCCO5)n4)c3)o1)C(C)(C)CCC2(C)C (stereo not drawn)
2. Cc1cc2c(cc1Cc1ccc(C(=O)NCc3cccc(CNc4ccnc(NC[C@@H]5CCCO5)n4)c3)o1)C(C)(C)CCC2(C)C [Compound 176]
3. COc1cccc(OC)c1NC(=O)c1ccc(Cc2c(C)c(C)cc(C)c2C)o1
4. Cc1cc2c(cc1Cc1ccc(C(=O)NCc3cccc(CNC(=N)N)c3)o1)C(C)(C)CCC2(C)C

**Result**
[6, 4, 850, 560]

Looking up Cc1cc2c(cc1Cc1ccc(C(=O)NCC3CCC(CNc4nccc(NCC5CCCO5)n4)CC3)o1)C(C)(C)CCC2(C)C (stereo not drawn) , I see its IC50 listed as 42

* * *

molecular target: human GnRH receptor (Homo sapiens); construct: expressed in transfected cells; host or cells: HEK 293 (hGnRH-R/293, from Dr. Stuart Sealfon); experiment: Radioligand binding, 125I-GnRH-A displacement, membranes of HEK 293 cells with human GnRH receptor; conditions: 1 uM; read-out: % Inhib. @ 1 uM hGnRH
Sequence (P30968 whole entry): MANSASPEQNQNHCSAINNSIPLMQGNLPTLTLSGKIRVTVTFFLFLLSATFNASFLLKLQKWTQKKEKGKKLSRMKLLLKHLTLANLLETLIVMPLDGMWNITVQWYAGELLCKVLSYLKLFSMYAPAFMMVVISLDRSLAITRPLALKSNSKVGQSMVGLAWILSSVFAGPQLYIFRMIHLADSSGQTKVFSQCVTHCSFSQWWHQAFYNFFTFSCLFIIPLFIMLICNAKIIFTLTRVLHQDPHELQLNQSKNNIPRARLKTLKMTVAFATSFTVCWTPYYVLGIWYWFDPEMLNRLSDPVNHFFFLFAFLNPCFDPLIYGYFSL
Quick rule for you: inhibition at 1 µM at 20% or higher means Yes, lower means No.

These recorded examples may help you get a feel for the data.
compound="Cc1ccc(CNC(=O)c2ccc(Cc3cc4c(cc3C)C(C)(C)CCC4(C)C)o2)cc1 [drawing 1175]" classassignment=Yes
compound=Cc1cc2c(cc1Cc1ccc(C(=O)N3CCN(c4ccc(F)cc4)CC3)o1)C(C)(C)CCC2(C)C classassignment=No
compound=Cc1cc2c(cc1Cc1ccc(C(=O)NCc3cc4c5ccccc5n(Cc5cc(Cl)ccc5Cl)c4cn3)o1)C(C)(C)CCC2(C)C classassignment=No
compound=Cc1cc2c(cc1Cc1ccc(C(=O)N3CCN(c4ccc(C(F)(F)F)cc4[N+](=O)[O-])CC3)o1)C(C)(C)CCC2(C)C classassignment=No
compound=COc1ccc(C(NC(=O)c2ccc(Cc3cc4c(cc3C)C(C)(C)CCC4(C)C)o2)c2ccc(OC)cc2)cc1 classassignment=Yes
compound="COc1cc(OC)c(CNC(=O)c2ccc(Cc3cc4c(cc3C)C(C)(C)CCC4(C)C)o2)c(OC)c1 [drawing 1094]" classassignment=No
compound="Cc1cc2c(cc1Cc1ccc(C(=O)NCCCNCCCCNCCCN)o1)C(C)(C)CCC2(C)C [drawing 1034]" classassignment=No
compound="Cc1cc2c(cc1Cc1ccc(C(=O)NCC3CCN(c4ccnc(Cl)n4)CC3)o1)C(C)(C)CCC2(C)C [drawing 1064]" classassignment=Yes

**Query** Confirm if inhibition at 1 µM reported for the compound "Cc1cc2c(cc1Cc1ccc(C(=O)NCCc3c(Cl)cccc3Cl)o1)C(C)(C)CCC2(C)C" is 20% or above.
**Result** No

**Query** Confirm if inhibition at 1 µM reported for the compound "Cc1cc2c(cc1Cc1ccc(C(=O)NCc3cccc(C(F)(F)F)c3)o1)C(C)(C)CCC2(C)C" is 20% or above.
**Result** No

**Query** Confirm if inhibition at 1 µM reported for the compound Cc1cc2c(cc1Cc1ccc(C(=O)NCc3ccc4c(c3)OCO4)o1)C(C)(C)CCC2(C)C [drawing 992] is 20% or above.
**Result** Yes

**Query** Confirm if inhibition at 1 µM reported for the compound Cc1cc2c(cc1Cc1ccc(C(=O)NCC(O)c3ccc(O)c(O)c3)o1)C(C)(C)CCC2(C)C (centres unmarked) is 20% or above.
**Result** No

**Query** Confirm if inhibition at 1 µM reported for the compound COc1cc(CNC(=O)c2ccc(Cc3cc4c(cc3C)C(C)(C)CCC4(C)C)o2)cc(OC)c1 [drawing 1026] is 20% or above.
**Result** Yes

**Query** Confirm if inhibition at 1 µM reported for the compound COc1ccccc1CNC(=O)c1ccc(Cc2cc3c(cc2C)C(C)(C)CCC3(C)C)o1 [drawing 1078] is 20% or above.
**Result** Yes

**Query** Confirm if inhibition at 1 µM reported for the compound "Cc1cc2c(cc1Cc1ccc(C(=O)N[C@@H](CO)Cc3c[nH]cn3)o1)C(C)(C)CCC2(C)C" is 20% or above.
**Result** No

**Query** Confirm if inhibition at 1 µM reported for the compound "Cc1cc2c(cc1Cc1ccc(C(=O)NCCCCCN3CCOCC3)o1)C(C)(C)CCC2(C)C" is 20% or above.
**Result** No

**Query** Confirm if inhibition at 1 µM reported for the compound "COc1cccc(OC)c1CNC(=O)c1ccc(Cc2cc3c(cc2C)C(C)(C)CCC3(C)C)o1" is 20% or above.
**Result** No

**Query** Confirm if inhibition at 1 µM reported for the compound "Cc1cc2c(cc1Cc1ccc(C(=O)Nc3ccccc3C(=O)Nc3cnccn3)o1)C(C)(C)CCC2(C)C" is 20% or above.
**Result** No

**Query** Confirm if inhibition at 1 µM reported for the compound Cc1cc2c(cc1Cc1ccc(C(=O)NCCc3c[nH]cn3)o1)C(C)(C)CCC2(C)C [drawing 1031] is 20% or above.
**Result** Yes

**Query** Confirm if inhibition at 1 µM reported for the compound Cc1cc2c(cc1Cc1ccc(C(=O)NCCc3cccs3)o1)C(C)(C)CCC2(C)C [drawing 1023] is 20% or above.
**Result** Yes

**Query** Confirm if inhibition at 1 µM reported for the compound Cc1cc2c(cc1Cc1ccc(C(=O)N3CCCCC3c3ccccc3)o1)C(C)(C)CCC2(C)C (centres unmarked) is 20% or above.
**Result** No

**Query** Confirm if inhibition at 1 µM reported for the compound COc1cccc(CNC(=O)c2ccc(Cc3cc4c(cc3C)C(C)(C)CCC4(C)C)o2)c1OC [drawing 1093] is 20% or above.
**Result** Yes

**Query** Confirm if inhibition at 1 µM reported for the compound "Cc1cc2c(cc1Cc1ccc(C(=O)N3CCN(c4ccc(O)cc4)CC3)o1)C(C)(C)CCC2(C)C" is 20% or above.
**Result** No

**Query** Confirm if inhibition at 1 µM reported for the compound Cc1cc2c(cc1Cc1ccc(C(=O)NCc3ccc(S(N)(=O)=O)cc3)o1)C(C)(C)CCC2(C)C [drawing 1052] is 20% or above.
**Result** Yes

**Query** Confirm if inhibition at 1 µM reported for the compound Cc1cc2c(cc1Cc1ccc(C(=O)NCCc3ccc(S(N)(=O)=O)cc3)o1)C(C)(C)CCC2(C)C [drawing 989] is 20% or above.
**Result** Yes

**Query** Confirm if inhibition at 1 µM reported for the compound Cc1cc2c(cc1Cc1ccc(C(=O)NC(C)c3ccccc3)o1)C(C)(C)CCC2(C)C (centres unmarked) [drawing 1138] is 20% or above.
**Result** Yes

**Query** Confirm if inhibition at 1 µM reported for the compound Cc1cc2c(cc1Cc1ccc(C(=O)NC3CCCC(Nc4ccnc(NCC5CCCO5)n4)C3)o1)C(C)(C)CCC2(C)C (centres unmarked) [drawing 1045] is 20% or above.
**Result** No

**Query** Confirm if inhibition at 1 µM reported for the compound Cc1cc2c(cc1Cc1ccc(C(=O)NCc3ccccc3)o1)C(C)(C)CCC2(C)C [drawing 1070] is 20% or above.
**Result** Yes
